Biological target: T1, SALL4 ZFC4 (human, UniProt Q9UJQ4 856-930)
T1 sequence: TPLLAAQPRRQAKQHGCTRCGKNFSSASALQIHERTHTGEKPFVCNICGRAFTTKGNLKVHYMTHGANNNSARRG
Assay: ITC
MEASURED_METRIC: Kd

Ask: // lookup Kd for 12-mer T3C/A3'G (dsDNA) DNA 1: GGCAATATTTCC DNA 2: GGAAATATTGCC
Reply: ~9.95 µM

Reference for the values: paper doi:10.1101/2022.06.13.496009
